Test system: ATP;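 note: ATP exposure 15 min at 22 °C before imaging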
Assay: switch fluorescence ratio, 500 uM ATP over buffer (Cy3 cluster intensity, sum of 5 cycles each) (fold (ratio)); higher = stronger signal-on switching upon ATP binding; sequences stand for … in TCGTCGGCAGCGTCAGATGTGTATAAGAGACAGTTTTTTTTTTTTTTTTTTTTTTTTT…TC
Conditions: aptamer strand: ATP DNA aptamer (quencher-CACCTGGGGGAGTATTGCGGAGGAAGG + anchor), 100 nM annealed; ATP concentration: 500 uM
Listing of recorded switch fluorescence ratio by entry.

>  <residues>
AAGGGTATAT

>  <switch fluorescence ratio>
0.983

$$$$
>  <residues>
TGAGGCCGAA

>  <switch fluorescence ratio>
1.02

$$$$
>  <residues>
TTCACGCTAG

>  <switch fluorescence ratio>
1.04

$$$$
>  <residues>
TCTCATGGAG

>  <switch fluorescence ratio>
1

$$$$
>  <residues>
GTTCTGGGGG

>  <switch fluorescence ratio>
0.984

$$$$
>  <residues>
GATCATTGAC

>  <switch fluorescence ratio>
1.07

$$$$
>  <residues>
AGTAACTAGA

>  <switch fluorescence ratio>
1.01

$$$$
>  <residues>
GGGGTTATCG

>  <switch fluorescence ratio>
0.99

$$$$
>  <residues>
TTCATGTGGA

>  <switch fluorescence ratio>
1.02

$$$$
>  <residues>
ATTCGTTTTT

>  <switch fluorescence ratio>
1

$$$$
>  <residues>
TGAGGTAGGA

>  <switch fluorescence ratio>
0.978

$$$$
>  <residues>
TCAGTGAACT

>  <switch fluorescence ratio>
1

$$$$
>  <residues>
TGGTTTCCTT

>  <switch fluorescence ratio>
0.955

$$$$
>  <residues>
CTATTGAAGT

>  <switch fluorescence ratio>
0.984

$$$$
>  <residues>
CCGTAATTGA

>  <switch fluorescence ratio>
2.75

$$$$
>  <residues>
ACGCTGCCAG

>  <switch fluorescence ratio>
1.04

$$$$
>  <residues>
AGTTGGAGGC

>  <switch fluorescence ratio>
0.948

$$$$
>  <residues>
CGGAAGGGGG

>  <switch fluorescence ratio>
1

$$$$
>  <residues>
TCCCCGGTCA

>  <switch fluorescence ratio>
1.09

$$$$
>  <residues>
AGTTGTAAGG

>  <switch fluorescence ratio>
0.962

$$$$
